System: Clone V cells
Settings: human
Please respond with reported Toxicity Assay Z-score (CTB cell viability) for every item in the list.
Give only the figure.

## Task Give a short answer stating reported Toxicity Assay Z-score (CTB cell viability) for CO[C@@]12[C@H](COC(N)=O)C3=C(C(=O)C(C)=C(N)C3=O)N1C[C@@H]1N[C@@H]12 [Mitomycin] .
## Result 2.45

## Task Give a short answer stating reported Toxicity Assay Z-score (CTB cell viability) for O=NN(CCCl)C(=O)NC1CCCCC1 [Lomustine] .
## Result 0.41

## Task Give a short answer stating reported Toxicity Assay Z-score (CTB cell viability) for COc1cc(O)c2c(c1)[C@H]1O[C@@H]1C[C@H](O)[C@H](O)C(=O)/C=C\C[C@H](C)OC2=O [HYPOTHEMYCIN] .
## Result 0.42

## Task Give a short answer stating reported Toxicity Assay Z-score (CTB cell viability) for C1CN1c1nc(N2CC2)nc(N2CC2)n1 [Triethylenemelamine] .
## Result 0.82

## Task Give a short answer stating reported Toxicity Assay Z-score (CTB cell viability) for O=P1(NCCCl)OCCCN1CCCl (stereo not drawn) [Ifosfamide] .
## Result 0.82

## Task Give a short answer stating reported Toxicity Assay Z-score (CTB cell viability) for NC(=O)Nc1cc(-c2cccc(F)c2)sc1C(=O)N[C@H]1CCCNC1 [AZD 7762] .
## Result 0.35

## Task Give a short answer stating reported Toxicity Assay Z-score (CTB cell viability) for CC(C)C[C@H](NC(=O)[C@H](CCc1ccccc1)NC(=O)CN1CCOCC1)C(=O)N[C@@H](Cc1ccccc1)C(=O)N[C@@H](CC(C)C)C(=O)[C@@]1(C)CO1 [Carfilzomib] .
## Result 1.05

## Task Give a short answer stating reported Toxicity Assay Z-score (CTB cell viability) for O=NN(CCCl)C(=O)NCCCl [Carmustine] .
## Result 2.39

## Task Give a short answer stating reported Toxicity Assay Z-score (CTB cell viability) for O=C(O)CCCc1ccc(N(CCCl)CCCl)cc1 [Chlorambucil, reference compound] .
## Result 0.71

---

Target: FGF14:Nav1.6 C-tail complex (Homo sapiens, UniProt Q92915+Q9UQD0)
Construct: polymerase chain reaction (PCR) amplification of the FGF14 open reading frame (nt 1–855); C-terminal fragment of Nav1.6 (amino acids 1763–1976) fused with CD4ΔC-tail (amino acids 1–395); expressed in transfected cells
Sequence (Q92915 1-252 isoform Q92915-2): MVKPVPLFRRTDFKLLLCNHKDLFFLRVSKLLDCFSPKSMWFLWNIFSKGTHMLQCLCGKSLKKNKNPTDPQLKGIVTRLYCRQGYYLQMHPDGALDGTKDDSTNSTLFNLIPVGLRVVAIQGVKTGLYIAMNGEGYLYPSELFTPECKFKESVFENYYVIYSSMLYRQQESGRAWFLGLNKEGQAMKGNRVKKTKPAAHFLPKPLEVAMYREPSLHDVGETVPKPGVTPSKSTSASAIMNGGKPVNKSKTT
Sequence (Q9UQD0 1763-1976 limits assumed): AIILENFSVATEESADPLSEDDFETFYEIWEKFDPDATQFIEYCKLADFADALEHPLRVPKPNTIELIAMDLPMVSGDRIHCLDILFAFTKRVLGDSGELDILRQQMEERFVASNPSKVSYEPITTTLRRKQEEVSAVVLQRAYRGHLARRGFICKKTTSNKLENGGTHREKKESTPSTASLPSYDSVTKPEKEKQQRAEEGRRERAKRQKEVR
Experiment: Split-luciferase complementation assay (LCA) in Clone V double stable HEK293 cells
Type: cell-based
Conditions: average of Set 1 and Set 2; normalized to 0.3% DMSO controls
Structures can show the parent of a compound that is named as a salt.
Please respond with reported Split Luciferase Assay %Lum Avg for every item in the list.
State the answer as a number, implicitly in %.

## Task Give a short answer stating reported Split Luciferase Assay %Lum Avg for CO[C@H]1C[C@@H]2CC[C@@H](C)[C@@](O)(O2)C(=O)C(=O)N2CCCC[C@H]2C(=O)O[C@H]([C@H](C)C[C@@H]2CC[C@@H](O)[C@H](OC)C2)CC(=O)[C@H](C)/C=C(\C)[C@@H](O)[C@@H](OC)C(=O)[C@H](C)C[C@H](C)/C=C/C=C/C=C/1C .
## Result 110.32

## Task Give a short answer stating reported Split Luciferase Assay %Lum Avg for Nc1ccccc1NC(=O)c1ccc(CNc2nccc(-c3cccnc3)n2)cc1 .
## Result 76.73

## Task Give a short answer stating reported Split Luciferase Assay %Lum Avg for NC(=O)Nc1cc(-c2cccc(F)c2)sc1C(=O)N[C@H]1CCCNC1 .
## Result 75.28

## Task Give a short answer stating reported Split Luciferase Assay %Lum Avg for CS(=O)(=O)CCNCc1ccc(-c2ccc3ncnc(Nc4ccc(OCc5cccc(F)c5)c(Cl)c4)c3c2)o1 .
## Result 96.81

## Task Give a short answer stating reported Split Luciferase Assay %Lum Avg for O=C(NCCCNc1nc(Nc2cccc(NC(=O)N3CCCC3)c2)ncc1I)c1cccs1 .
## Result 37.58

## Task Give a short answer stating reported Split Luciferase Assay %Lum Avg for CC(C)Cn1cnc2c(N)nc3ccccc3c21 .
## Result 114.50

## Task Give a short answer stating reported Split Luciferase Assay %Lum Avg for Cc1[nH]c2ccccc2c1CCNCc1ccc(/C=C/C(=O)NO)cc1 .
## Result 86.56

## Task Give a short answer stating reported Split Luciferase Assay %Lum Avg for CNNCc1ccc(C(=O)NC(C)C)cc1 [Procarbazine hydrochloride] .
## Result 107.78

## Task Give a short answer stating reported Split Luciferase Assay %Lum Avg for CCN(CC)CCCC(C)Nc1nc(C)cc(Nc2ccc3nc(C)cc(N)c3c2)n1 (stereo not shown) .
## Result 100.65

## Task Give a short answer stating reported Split Luciferase Assay %Lum Avg for CC(=O)O[C@H]1C(=O)[C@@]2(C)[C@H]([C@H](OC(=O)c3ccccc3)[C@]3(O)C[C@H](OC(=O)[C@H](O)[C@@H](NC(=O)c4ccccc4)c4ccccc4)C(C)=C1C3(C)C)[C@]1(OC(C)=O)CO[C@@H]1C[C@@H]2O .
## Result 90.98

## Task Give a short answer stating reported Split Luciferase Assay %Lum Avg for CC[C@]1(O)C[C@@H]2CN(CCc3c([nH]c4ccccc34)[C@@](C(=O)OC)(c3cc4c(cc3OC)N(C)[C@H]3[C@@](O)(C(=O)OC)[C@H](OC(C)=O)[C@]5(CC)C=CCN6CC[C@]43[C@@H]65)C2)C1 [Vinblastine sulfate] .
## Result 191.58

## Task Give a short answer stating reported Split Luciferase Assay %Lum Avg for O=c1cc(N2CCOCC2)nc2c3ccccc3ccn12 .
## Result 96.42

## Task Give a short answer stating reported Split Luciferase Assay %Lum Avg for CC(=O)[C@]1(O)Cc2c(O)c3c(c(O)c2[C@@H](O[C@H]2C[C@H](N)[C@H](O)[C@H](C)O2)C1)C(=O)c1ccccc1C3=O [Idarubicin hydrochloride] .
## Result 96.49

## Task Give a short answer stating reported Split Luciferase Assay %Lum Avg for COc1cc(N2CCC(N3CCN(C)CC3)CC2)ccc1Nc1ncc(Cl)c(Nc2ccccc2S(=O)(=O)C(C)C)n1 .
## Result 7.11

## Task Give a short answer stating reported Split Luciferase Assay %Lum Avg for COc1cc(F)c(F)c(Nc2ccc(I)cc2F)c1NS(=O)(=O)C1(C[C@H](O)CO)CC1 .
## Result 10.82

## Task Give a short answer stating reported Split Luciferase Assay %Lum Avg for N#Cc1c(O)c2c(-c3ccc(-c4ccccc4O)cc3)csc2[nH]c1=O .
## Result 115.59

## Task Give a short answer stating reported Split Luciferase Assay %Lum Avg for O=C1NC(=O)/C(=C/c2ccc(-c3ccc(F)cc3O)o2)S1 .
## Result 49.80

## Task Give a short answer stating reported Split Luciferase Assay %Lum Avg for NC(=O)c1ccc2[nH]ccc2c1 .
## Result 121.47

## Task Give a short answer stating reported Split Luciferase Assay %Lum Avg for Nc1ccn([C@@H]2O[C@H](CO)[C@@H](O)C2(F)F)c(=O)n1 [Gemcitabine hydrochloride] .
## Result 99.13

## Task Give a short answer stating reported Split Luciferase Assay %Lum Avg for Nc1ncn([C@@H]2O[C@H](CO)[C@@H](O)[C@H]2O)c(=O)n1 .
## Result 99.49

## Task Give a short answer stating reported Split Luciferase Assay %Lum Avg for O=C1NC(=O)/C(=C/c2ccc3c(c2)OC(F)(F)O3)S1 .
## Result 70.75

## Task Give a short answer stating reported Split Luciferase Assay %Lum Avg for Cc1nc2c(c(=O)[nH]1)CSCC2 .
## Result 91.48

## Task Give a short answer stating reported Split Luciferase Assay %Lum Avg for Nc1ncnc2c1c(-c1cnc3[nH]ccc3c1)nn2C1CCCC1 [PP121, reference compound] .
## Result 48.86

## Task Give a short answer stating reported Split Luciferase Assay %Lum Avg for Oc1c2ccccc2c2c3c(cccc13)N=N2 .
## Result 98.80

## Task Give a short answer stating reported Split Luciferase Assay %Lum Avg for Cc1nc2c(O)cccc2c(=O)[nH]1 .
## Result 71.40

## Task Give a short answer stating reported Split Luciferase Assay %Lum Avg for C#Cc1cccc(Nc2ncnc3cc(OCCOC)c(OCCOC)cc23)c1 .
## Result 85.85

## Task Give a short answer stating reported Split Luciferase Assay %Lum Avg for CCCCC(=O)OCC(=O)[C@]1(O)Cc2c(O)c3c(c(O)c2[C@@H](O[C@H]2C[C@H](NC(=O)C(F)(F)F)[C@H](O)[C@H](C)O2)C1)C(=O)c1c(OC)cccc1C3=O .
## Result 124.78

## Task Give a short answer stating reported Split Luciferase Assay %Lum Avg for CC1(C)CNc2cc(NC(=O)c3cccnc3NCc3ccncc3)ccc21 .
## Result 83.76

## Task Give a short answer stating reported Split Luciferase Assay %Lum Avg for CS(=O)(=O)c1ccc(C(=O)Nc2ccc(Cl)c(-c3ccccn3)c2)c(Cl)c1 .
## Result 131.61

## Task Give a short answer stating reported Split Luciferase Assay %Lum Avg for O=C1NC(=O)/C(=C/c2ccc3c(c2)OCO3)S1 .
## Result 94.53

## Task Give a short answer stating reported Split Luciferase Assay %Lum Avg for c1cc(-c2cnn3cc(-c4ccc(OCCN5CCCCC5)cc4)cnc23)ccn1 .
## Result 126.39

src = paper PMC6858373
